assay.summary: Cytotoxicity against human PBL assessed as reduction in cell viability in presence of mitogenic stimulus phytohaemagglutinin incubated for 72 hrs by MTT assay
Type: cell-based
# GI50 at 72 h values compiled below

                  compound_structure_string  value_observed
0  CCOC(=O)c1cc2c(n1Cc1cccc(OC)c1)-c1oncc1CCC2        > 100 µM
1  CCOC(=O)c1c(Cl)c2c(n1Cc1cc(OC)cc(OC)c1)-c1oncc1CCC2        > 100 µM

Next compound, please.
Q: What value of measured GI50 at 72 h is listed for CCOC(=O)c1cc2c(n1Cc1cc(OC)cc(OC)c1)-c1oncc1CCC2 ?
Result: > 100 µM
